Reference source: the supplement of paper PMC10567573

B1: TOR1AIP2 (parent)
chain: YTSSQKVSPIQIDGAGRTWQDSDT

Variants of: B1
MEASUREMENT_NOTES: protein stability index of a GFP-peptide fusion (GPS, HEK-293T) (PSI 1-6); higher = more stable;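 note: lentivirally expressed fusions sorted by FACS into six bins by GFP to DsRed ratio, PSI derived from sequencing read proportions per bin multiplied by bin number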
PROTOCOL_CONDITIONS: c terminus: a fixed tail appended
Lab note: anything with protein stability index at or over 3 counts as class 1; the rest go in class 0.

Examples with answers:
V7F = class 1
P9K = class 1
S22D = class 1
S3L = class 1
K6Y = class 0
D23W = class 0
I10E = class 1
S4G = class 1
Q5I = class 1
D13M = class 0

Dear colleague, could you confirm whether V7M has protein stability index at or above 3? class 0

Dear colleague, could you confirm whether S22N has protein stability index at or above 3? class 1

Dear colleague, could you confirm whether G16S has protein stability index at or above 3? class 0

Dear colleague, could you confirm whether S4M has protein stability index at or above 3? class 0

Dear colleague, could you confirm whether Q11G has protein stability index at or above 3? class 0
